conditions: buffer; pH 7.4; 200.0 µM
Exercise: for every item that follows, state its recorded solubility kinetic.
Write the value in µg/mL as a bare number.

Using the record for O=C(c1cc(-c2cccc(Cl)c2)on1)N1CCCCCC1 , state its measured solubility kinetic. 14

Using the record for O=C1NC(c2cccc([N+](=O)[O-])c2)=CCN1c1ccccc1O , state its measured solubility kinetic. 45.2

Using the record for CC(C)CN=Cc1c(O)c([N+](=O)[O-])cc2oc3c(c12)CCCC3 , state its measured solubility kinetic. 6.5

Using the record for O=C(COC(=O)C1=COCCO1)Nc1cc(C(F)(F)F)ccc1Cl , state its measured solubility kinetic. 12.4

Using the record for CCCNC(=S)N1CCC(NC(=O)c2ccc(OC)cc2)CC1 , state its measured solubility kinetic. 20.3

###

details: buffer; pH 7.4; 200.0 µM
Observable: solubility kinetic (µg/mL)
Write the value in µg/mL as a bare number.

Using the record for CCCCCCCCCCCCCCCC[N+](C)(C)CC.[Br-] , state its measured solubility kinetic. 34.5

Using the record for COc1ccc(-c2cc(C(F)(F)F)c(C#N)c(SCC(=O)O)n2)cc1 , state its measured solubility kinetic. 53.6

Using the record for CCn1c(/C=C/c2ccc(F)cc2)nc2ccccc2c1=O , state its measured solubility kinetic. 1.6

Using the record for Cc1ccc(SCc2ccc(C(=O)Nc3nccs3)o2)cc1 , state its measured solubility kinetic. 2.2

Using the record for O=C(O)Cc1ccc(NC(=O)Cc2ccc3ccccc3c2)cc1 , state its measured solubility kinetic. 3.7

Using the record for O=C(NCCc1ccccc1)c1ccc(NC(=O)c2cccnc2)cc1 , state its measured solubility kinetic. 4.3

Using the record for C=CCNc1nc2c(c(=O)[nH]c(=O)n2C)n1CCCc1ccccc1 , state its measured solubility kinetic. 5.2

###

Exercise: for every item that follows, state its recorded solubility kinetic.
conditions: buffer; pH 7.4; 200.0 µM
Write the value in µg/mL as a bare number.

Using the record for CCCNc1nc(N2CCCC2)nc(N2CCCC2)n1 , state its measured solubility kinetic. 33.6

Using the record for CCOCCCNCc1cc(Cl)cc(Cl)c1OCC.Cl , state its measured solubility kinetic. 44

Using the record for CC(C)(C)NC(=O)COC(=O)c1ccc(Cl)cc1O , state its measured solubility kinetic. 7.3

Using the record for Oc1ccc(C=NC2CCCCC2)cc1 , state its measured solubility kinetic. 16.6

###

Exercise: for every item that follows, state its recorded solubility kinetic.
conditions: buffer; pH 7.4; 200.0 µM
Write the value in µg/mL as a bare number.

Using the record for O=C(/C=C/c1ccc2c(c1)OCO2)c1ccccn1 , state its measured solubility kinetic. 4.2

Using the record for C=CCn1c(=S)[nH]c2sc3c(c2c1=O)CCCC3 , state its measured solubility kinetic. 14.7

Using the record for CCOc1ccc(S(=O)(=O)N2CN(c3cccc(C(C)=O)c3)c3nc4ccccc4nc32)cc1 , state its measured solubility kinetic. 3.1

Using the record for CC(C)N(C(=O)COC(=O)c1ccc([N+](=O)[O-])cc1)c1ccccc1 , state its measured solubility kinetic. 1.1

Using the record for CCOc1ccc(CNCCN2CCCC2)cc1.O=C(O)C(=O)O , state its measured solubility kinetic. 28.2

Using the record for CSC1=C(C#N)C(=O)NC(c2ccc(Cl)cc2)S1 (centres undefined) , state its measured solubility kinetic. 11.9

Using the record for O=[N+]([O-])c1[nH]cnc1/C=C/c1ccccc1 , state its measured solubility kinetic. 1.8

Using the record for N#C/C(=C(/O)COC(=O)c1ccc(O)cc1)c1nc2ccccc2[nH]1 , state its measured solubility kinetic. 9

Using the record for Fc1ccc(C2Nc3cccc4cccc(c34)N2)cc1 , state its measured solubility kinetic. 3.2

Using the record for COc1ccc(OCCCN2CCc3ccccc3C2)cc1.Cl , state its measured solubility kinetic. 36.5

Using the record for O=C(NC(=S)NCC1CCCO1)c1ccco1 (centres undefined) , state its measured solubility kinetic. 37.6

Using the record for O=C(O)c1ccc(S(=O)(=O)NCC2CCCO2)cc1 (centres undefined) , state its measured solubility kinetic. 34.7

Using the record for Cc1cccc(Cn2c(C)nc3ccc([N+](=O)[O-])cc3c2=O)c1 , state its measured solubility kinetic. 3.6

Using the record for Cn1cccc1CNC(=S)Nc1ccccc1Cl , state its measured solubility kinetic. 36.4

###

conditions: buffer; pH 7.4; 200.0 µM
Exercise: for every item that follows, state its recorded solubility kinetic.

Using the record for CCCN1CN(c2ccccc2)C(=S)N(c2ccccc2)C1 , state its measured solubility kinetic. > 46.7 µg/mL

Using the record for COc1ccc(NCc2cc(=O)[nH]c3ccccc23)cc1 , state its measured solubility kinetic. 8 µg/mL

Using the record for C#Cc1ccc(C(=O)NCc2ccc(N3CCCC3=O)cc2)cc1 , state its measured solubility kinetic. 14.6 µg/mL

Using the record for Nc1cccc(-c2cc3ccccc3oc2=O)c1 , state its measured solubility kinetic. > 35.6 µg/mL

Using the record for CN(C)S(=O)(=O)c1ccc(C(=O)OC2CCOC2=O)cc1 (stereo not given) , state its measured solubility kinetic. > 47 µg/mL

Using the record for CCOc1ccc(Br)cc1S(=O)(=O)Nc1cccc(S(=O)(=O)Nc2ccccc2C(=O)O)c1 , state its measured solubility kinetic. > 83.3 µg/mL

Using the record for O=C1c2ccc(Oc3ccc([N+](=O)[O-])cc3)cc2C(=O)N1CCCO , state its measured solubility kinetic. 49 µg/mL

Using the record for O=C1Nc2ccccc2/C1=C/c1ccnc2ccccc12 , state its measured solubility kinetic. 3.5 µg/mL

Using the record for C=CCN1CCN(c2ccncc2S(=O)(=O)N2CCCCC2)CC1 , state its measured solubility kinetic. > 52.6 µg/mL

Using the record for Cc1cc(=O)[nH]c(SCc2cn3ccccc3n2)n1 , state its measured solubility kinetic. > 40.8 µg/mL

Using the record for Cl.OCCN1C2=NCCCN2c2ccccc21 , state its measured solubility kinetic. > 38.1 µg/mL

Using the record for COCCNc1nnc(Cc2ccccc2)c(=O)[nH]1 , state its measured solubility kinetic. > 39 µg/mL

Using the record for COc1cccc(C(=O)NOCc2ccccc2)c1OC , state its measured solubility kinetic. > 43.1 µg/mL

Using the record for CC1CCCC(NC(=O)CSc2nncs2)C1C (stereo not given) , state its measured solubility kinetic. > 42.8 µg/mL

Using the record for CCN(CC(=O)Nc1c(F)cccc1F)C(=O)Cc1ccccc1 , state its measured solubility kinetic. > 49.9 µg/mL

Using the record for O=Nc1c(O)n(Cc2ccccc2)c2ccccc12 , state its measured solubility kinetic. > 37.8 µg/mL

Using the record for CC12CCC(C(=O)Nc3nc4ccccc4s3)(OC1=O)C2(C)C (stereo not given) , state its measured solubility kinetic. 34.7 µg/mL

Using the record for S=C1NCN(Cc2ccco2)CN1c1cccc2ccccc12 , state its measured solubility kinetic. > 48.5 µg/mL

Using the record for CCOC(=O)C1CCN(CCC(=O)Nc2cc(C)cc(C)c2)CC1 , state its measured solubility kinetic. > 49.9 µg/mL

Using the record for Cc1ccc2c(CC(=O)NC3CCS(=O)(=O)C3)coc2c1C (stereo not given) , state its measured solubility kinetic. > 48.2 µg/mL

Using the record for COC(=O)c1c(C(=O)OC)c2n(c1C)CCS2 , state its measured solubility kinetic. > 38.3 µg/mL

Using the record for O=C(c1ccc2[nH]c(=O)c(=O)[nH]c2c1)N1CCc2ccccc21 , state its measured solubility kinetic. 43 µg/mL

Using the record for COC(=O)CN=Cc1c(O)n(-c2ccc(Cl)cn2)c(=O)c2ccccc12 , state its measured solubility kinetic. > 55.8 µg/mL

Using the record for Cc1ccc(C2N3CCCN23)cc1 (stereo not given) , state its measured solubility kinetic. > 26.1 µg/mL

Using the record for COc1ccc2[nH]c(C(=O)Nc3ccc(F)cc3Br)cc2c1 , state its measured solubility kinetic. < 0.4 µg/mL

###

details: buffer; pH 7.4; 200.0 µM
Observable: solubility kinetic (µg/mL)
Write the value in µg/mL as a bare number.

Using the record for Cc1ccc(S(=O)(=O)N2CCN(C(=O)COC(=O)c3cncc(Br)c3)CC2)c(C)c1 , state its measured solubility kinetic. 5.3

Using the record for O=C(NCCO)c1cc([N+](=O)[O-])cc2c1C=Cc1ccccc1O2 , state its measured solubility kinetic. 35.3

Using the record for COCCN(C(=S)Nc1c(C)cccc1C)C(C)c1ccco1 (stereo not given) , state its measured solubility kinetic. 47.1

Using the record for CCCN(CC(=O)Nc1ccc(F)c(F)c1F)C(=O)c1ccc2c(c1)NC(=O)CS2 , state its measured solubility kinetic. 11.2

###

settings: buffer; pH 7.4; 200.0 µM
So basically: solubility kinetic at 2 µg/mL or higher? That is Fulfilled. Lower than 2 µg/mL? That is Not fulfilled.

Reported solubility kinetic at or above 2 µg/mL? CC(C)c1ccc(NC(=S)Nc2cccc3ccccc23)cc1 Not fulfilled

Reported solubility kinetic at or above 2 µg/mL? CCN(c1ccccc1)S(=O)(=O)c1ccc(C(=O)N2CCOCC2)cc1 Fulfilled

Reported solubility kinetic at or above 2 µg/mL? Cc1ccc(OCCNC(=O)c2ccc3c(c2)OCO3)cc1 Fulfilled

Reported solubility kinetic at or above 2 µg/mL? Cc1nc(NC(=O)c2ccc(Br)o2)ccc1Br Not fulfilled

Reported solubility kinetic at or above 2 µg/mL? COc1ccc(S(=O)(=O)NC(C)C(=O)N2CCCC2)cc1C (configuration not stated) Fulfilled

Reported solubility kinetic at or above 2 µg/mL? O=[N+]([O-])c1ccc(COc2cccc3cccnc23)cc1 Fulfilled

Reported solubility kinetic at or above 2 µg/mL? Cn1cccc1C(=O)NC1CCCCC1 Fulfilled

Reported solubility kinetic at or above 2 µg/mL? CCOc1c(Nc2ccc(C(C)C)cc2)c(=O)c1=O Fulfilled

Reported solubility kinetic at or above 2 µg/mL? Cc1ccccc1-c1nnc(CS(=O)(=O)c2ccccc2)o1 Fulfilled

Reported solubility kinetic at or above 2 µg/mL? Clc1ccc(-c2nsc(N3CCOCC3)n2)c(Cl)c1 Fulfilled

Reported solubility kinetic at or above 2 µg/mL? O=C(Nc1ccccc1)Nc1cccc(-c2cn3cccnc3n2)c1 Not fulfilled

Reported solubility kinetic at or above 2 µg/mL? CC(CCc1ccccc1)NC(=O)CNc1cccc([N+](=O)[O-])c1 (configuration not stated) Fulfilled
